# Test system: HT29 human colon adenocarcinoma cells
# measurement_notes: MTX cytotoxicity screening, HT29
# Assay type: cell-based
# test_context: HT-29
experimental_endpoint: EC50 (nM)

[[record]]
compound = "CN(Cc1cnc2nc(N)nc(N)c2n1)c1ccc(C(=O)N[C@@H](CCC(=O)O)C(=O)O)cc1 [MTX, methotrexate]"
experimental_endpoint = "EC50"
unit_symbol = "nM"
observed_result = 60.9


Data provenance is paper PMC5652693.
